molecular target: human Tie2 (Homo sapiens); construct: human Tie2 corresponding to amino acids 776-1124 of the intracellular domain was generated by PCR; made in house; host or cells: baculovirus expression system (vector pFastBacGT); assay: Tie2 kinase inhibition: phosphorylation of GST-PLC (SH2-SH3 fragments) by GST-Tie2, 33P-ATP flashplate; assay type: biochemical; settings: read-out: Tie2 % Inhib. 10 μM
Sequence (Q02763 776-1124): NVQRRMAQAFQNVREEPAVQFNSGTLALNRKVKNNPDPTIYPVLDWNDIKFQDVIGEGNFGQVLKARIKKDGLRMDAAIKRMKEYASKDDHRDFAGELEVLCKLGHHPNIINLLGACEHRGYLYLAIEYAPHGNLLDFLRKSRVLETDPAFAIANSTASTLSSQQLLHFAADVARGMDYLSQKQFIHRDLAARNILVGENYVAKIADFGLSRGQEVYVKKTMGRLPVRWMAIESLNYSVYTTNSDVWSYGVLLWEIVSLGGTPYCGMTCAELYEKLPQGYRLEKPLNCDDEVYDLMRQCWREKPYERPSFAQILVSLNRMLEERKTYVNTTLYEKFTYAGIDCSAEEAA
METRIC: inhibition at 10 µM (%)

Please review the entries below; each comes with its answer.
{"MOLECULE": "Cc1cc2nc(-c3[nH]nc4c3CCN(C(=O)C3CC3)C4)[nH]c2cc1C", "UNIT SYMBOL": "%", "inhibition at 10 µM": 94.1}
{"MOLECULE": "Cc1cc2nc(-c3[nH]nc4c3CCN(C(=O)CC(C)C)C4)[nH]c2cc1C", "UNIT SYMBOL": "%", "inhibition at 10 µM": 84.8}
{"MOLECULE": "Cc1cc2nc(-c3[nH]nc4c3CCN(C(=O)c3ccc(S(C)(=O)=O)cc3)C4)[nH]c2cc1C", "UNIT SYMBOL": "%", "inhibition at 10 µM": 82.3}
{"MOLECULE": "Cc1cc2nc(-c3[nH]nc4c3CCN(C(=O)CCc3ccccc3)C4)[nH]c2cc1C", "UNIT SYMBOL": "%", "inhibition at 10 µM": 82.4}
{"MOLECULE": "Cc1cc2nc(-c3[nH]nc4c3CCN(CCC(C)C)C4)[nH]c2cc1C", "UNIT SYMBOL": "%", "inhibition at 10 µM": 50.7}
{"MOLECULE": "Cc1cc2nc(-c3[nH]nc4c3CCN(S(=O)(=O)c3ccccc3C)C4)[nH]c2cc1C", "UNIT SYMBOL": "%", "inhibition at 10 µM": 90.8}

P. Cc1cc2nc(-c3[nH]nc4c3CCN(S(=O)(=O)CC(F)(F)F)C4)[nH]c2cc1C
Q. Cc1cc2nc(-c3[nH]nc4c3CCN(C(=O)c3cccs3)C4)[nH]c2cc1C
R. Cc1cc2nc(-c3[nH]nc4c3CCN(C(=O)Nc3ccccc3C)C4)[nH]c2cc1C
S. CCCCS(=O)(=O)N1CCc2c(n[nH]c2-c2nc3cc(C)c(C)cc3[nH]2)C1
Input line: Would you mind ranking these compounds by ascending inhibition at 10 µM? Please express your ranking as an ordered list of the labels.
Output line: R, S, P, Q

a. Cc1cc2nc(-c3[nH]nc4c3CCN(Cc3ccc(Cl)cc3)C4)[nH]c2cc1C
b. COc1ccccc1S(=O)(=O)N1CCc2c(-c3nc4cc(C)c(C)cc4[nH]3)n[nH]c2C1
c. Cc1cc2nc(-c3[nH]nc4c3CCN(C(=O)Nc3ccc(Cl)cc3)C4)[nH]c2cc1C
Input line: Order the items by recorded inhibition at 10 µM; the first position goes to the largest value. Show the ranking through the labels, in the order asked for.
Output line: b, a, c

---

target: human KDR enzyme (Homo sapiens, UniProt P35968); construct: The cytoplasmic domain of the human KDR enzyme was cloned in GST fusion form; GST; made in house; host or cells: SF21 insect cells (baculovirus, pFastBac); assay: KDR kinase inhibition: phosphorylation of PLCγ SH2-SH3 substrate by KDR enzyme, 33P-ATP scintillation plate; assay type: biochemical; settings: Assay 1, read-out: KDR % Inhib at 10 μM Assay 1
Sequence (P35968 786-1356 limits assumed): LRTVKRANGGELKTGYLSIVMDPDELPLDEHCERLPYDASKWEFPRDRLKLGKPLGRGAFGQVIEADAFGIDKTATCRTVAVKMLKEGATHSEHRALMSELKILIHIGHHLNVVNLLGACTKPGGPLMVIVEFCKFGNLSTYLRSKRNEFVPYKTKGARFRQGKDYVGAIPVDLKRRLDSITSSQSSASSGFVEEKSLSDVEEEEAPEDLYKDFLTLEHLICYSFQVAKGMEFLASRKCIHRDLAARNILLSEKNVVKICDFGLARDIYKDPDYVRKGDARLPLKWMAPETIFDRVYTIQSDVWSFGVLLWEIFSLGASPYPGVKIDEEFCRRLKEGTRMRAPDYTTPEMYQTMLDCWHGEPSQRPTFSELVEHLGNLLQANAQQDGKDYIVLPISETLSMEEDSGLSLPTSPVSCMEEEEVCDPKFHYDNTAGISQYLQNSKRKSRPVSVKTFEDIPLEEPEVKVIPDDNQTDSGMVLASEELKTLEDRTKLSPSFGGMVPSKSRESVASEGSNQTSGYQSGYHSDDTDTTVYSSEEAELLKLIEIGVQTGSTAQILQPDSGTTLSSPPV
METRIC: inhibition at 10 µM (%)

Known results for molecules:
{"MOLECULE": "Cc1cc2nc(-c3[nH]nc4c3CCN(C(=O)c3ccccc3NCc3ccccc3)C4)[nH]c2cc1C [Example P-31378-112-8]", "UNIT SYMBOL": "%", "inhibition at 10 µM": 86.8}
{"MOLECULE": "Cc1cc2nc(-c3[nH]nc4c3CCN(C(=O)c3ccccc3Oc3ccccc3)C4)[nH]c2cc1C [Example P-31378-112-5]", "UNIT SYMBOL": "%", "inhibition at 10 µM": 94.7}
{"MOLECULE": "Cc1cc2nc(-c3[nH]nc4c3CCN(C(=O)c3ccccc3Nc3cccc(Cl)c3C)C4)[nH]c2cc1C [Example P-31375-112-10]", "UNIT SYMBOL": "%", "inhibition at 10 µM": 42.3}
{"MOLECULE": "Cc1cc2nc(-c3[nH]nc4c3CCN(C(=O)c3ccccc3Nc3ccccc3)C4)[nH]c2cc1C [Example P-31378-112-1]", "UNIT SYMBOL": "%", "inhibition at 10 µM": 96.5}
{"MOLECULE": "Cc1cc2nc(-c3[nH]nc4c3CCN(C(=O)c3ccccc3OCc3ccccc3)C4)[nH]c2cc1C [Example P-31378-112-9]", "UNIT SYMBOL": "%", "inhibition at 10 µM": 53.2}
{"MOLECULE": "Cc1cc2nc(-c3[nH]nc4c3CCN(C(=O)c3ccccc3NC(=O)c3ccc(Cl)cc3)C4)[nH]c2cc1C [Example P-31378-112-15]", "UNIT SYMBOL": "%", "inhibition at 10 µM": 75.5}
{"MOLECULE": "Cc1cc2nc(-c3[nH]nc4c3CCN(C(=O)c3ccccc3CCc3ccccc3)C4)[nH]c2cc1C [Example P-31378-112-7]", "UNIT SYMBOL": "%", "inhibition at 10 µM": 68.6}
{"MOLECULE": "Cc1cc2nc(-c3[nH]nc4c3CCN(C(=O)c3ccccc3Cc3ccccc3)C4)[nH]c2cc1C [Example P-31378-112-6]", "UNIT SYMBOL": "%", "inhibition at 10 µM": 71.4}

1. Cc1cc2nc(-c3[nH]nc4c3CCN(C(=O)c3ccccc3NCc3ccco3)C4)[nH]c2cc1C [Example P-31378-112-16]
2. Cc1cc2c(cc1C)NC(c1[nH]nc3c1CCN(C(=O)c1ccc(C)c([N+](=O)[O-])c1)C3)N2 [Example P-31378-112-14]
3. Cc1cc2nc(-c3[nH]nc4c3CCN(C(=O)c3ccccc3Nc3cccc(C(F)(F)F)c3)C4)[nH]c2cc1C [Example P-31378-112-4]
Input line: Order field: inhibition at 10 µM | Direction: descending (largest first) Please reply with the labels ordered as requested. Many thanks.
Output line: 1, 3, 2

---

Molecular target: human KDR enzyme (Homo sapiens, UniProt P35968)
Construct: The cytoplasmic domain of the human KDR enzyme was cloned in GST fusion form; GST; made in house; host or cells: SF21 insect cells (baculovirus, pFastBac)
Assay: KDR kinase inhibition: phosphorylation of PLCγ SH2-SH3 substrate by KDR enzyme, 33P-ATP scintillation plate
Format: biochemical
Conditions: read-out: KDR % Inhib. 10 μM
Procedure: The inhibitory effect of the compounds is determined in an assay for phosphorylation of substrate by the KDR enzyme in vitro using a scintillation technique (96-well plate, NEN). The cytoplasmic domain of the human KDR enzyme was cloned in GST fusion form into the baculovirus expression vector pFastBac. […] The KDR kinase activity is measured in 20 mM MOPS, 10 mM MgCl2, 10 mM MnCl2, 1 mM DTT, 2.5 mM EGTA, 10 mM b-glycerophosphate, pH=7.2, in the presence of 10 mM MgCl2, 100 μM Na3VO4 and 1 mM NaF. […]
METRIC: inhibition at 10 µM (%)

Example entries begin here.
{"MOLECULE": "Cc1cc2nc(-c3[nH]nc4c3CCN(S(=O)(=O)c3cccc(Cl)c3Cl)C4)[nH]c2cc1C", "inhibition at 10 µM / %": 31.9}
{"MOLECULE": "Cc1cc2nc(-c3[nH]nc4c3CCN(C(=O)c3cccc(Cl)c3Cl)C4)[nH]c2cc1C", "inhibition at 10 µM / %": 52.6}
{"MOLECULE": "Cc1cc2nc(-c3[nH]nc4c3CCN(C(=O)C3CC3)C4)[nH]c2cc1C", "inhibition at 10 µM / %": 33.4}
{"MOLECULE": "CCCCNC(=O)N1CCc2c(n[nH]c2-c2nc3cc(C)c(C)cc3[nH]2)C1", "inhibition at 10 µM / %": 18}

a. COc1cccc(S(=O)(=O)N2CCc3c(n[nH]c3-c3nc4cc(C)c(C)cc4[nH]3)C2)c1
b. Cc1cc2nc(-c3[nH]nc4c3CCN(C(=O)C(C)C)C4)[nH]c2cc1C
c. CCCCN1CCc2c(n[nH]c2-c2nc3cc(C)c(C)cc3[nH]2)C1
d. Cc1cc2nc(-c3[nH]nc4c3CCN(C(=O)c3ccccc3)C4)[nH]c2cc1C
Input line: Order the 4 compounds from highest to lowest inhibition at 10 µM. A ranking is expressed here by listing the labels in the requested order.
Output line: d, a, b, c

---

biological target: human KDR enzyme (Homo sapiens, UniProt P35968); construct: The cytoplasmic domain of the human KDR enzyme was cloned in GST fusion form; GST; made in house; host or cells: SF21 insect cells (baculovirus, pFastBac); experiment: KDR kinase inhibition: phosphorylation of PLCγ SH2-SH3 substrate by KDR enzyme, 33P-ATP scintillation plate; assay type: biochemical; details: read-out: KDR % Inhib. 10 μM
METRIC: inhibition at 10 µM (%)

{"MOLECULE": "Cc1cc2nc(-c3[nH]nc4c3CCN(Cc3cccs3)C4)[nH]c2cc1C", "TARGET UNDER TEST": "human KDR enzyme (Homo sapiens, UniProt P35968)", "UNIT SYMBOL": "%", "inhibition at 10 µM": 84.5}

a. Cc1cc2nc(-c3[nH]nc4c3CCN(C(=O)CC(C)C)C4)[nH]c2cc1C
b. Cc1cc2nc(-c3[nH]nc4c3CCN(C(=O)c3cccnc3)C4)[nH]c2cc1C
Input line: // max by inhibition at 10 µM over [ a , b ] Give the chosen item's label as your response.
Output line: b
(b: 25.4%, a: 12.2%)
